# assay.comment: Drug uptake in wild-type C57Bl/6J mouse brain at 30 mg/kg, po after 4 hrs
# Assay type: ADME, organism-based
# Design: dose 30 mg/kg, route oral
# run.parameters: read-out: Drug uptake

structure.as.smiles: CN1CC[C@@](C)(c2cc(NC(=O)c3ccc(Cl)cn3)ccc2F)N=C1N
limit.operator: <
concentration at 4 h, ng/g: 13
--
structure.as.smiles: C[C@@]1(c2cc(NC(=O)c3ccc(Cl)cn3)ccc2F)CCC2(CC2)C(N)=N1
limit.operator: =
concentration at 4 h, ng/g: 8

----------
# assay.comment: Plasma concentration in wild-type C57Bl/6J mouse at 30 mg/kg, po after 4 hrs
# Format: ADME, organism-based
# Set-up: dose 30 mg/kg, route oral
readout.type: concentration at 4 h (ng/mL)

structure.as.smiles: CN1CC[C@@](C)(c2cc(NC(=O)c3ccc(Cl)cn3)ccc2F)N=C1N
readout.type: concentration at 4 h
limit.operator: <
result.number: 3
--
structure.as.smiles: C[C@@]1(c2cc(NC(=O)c3ccc(Cl)cn3)ccc2F)CCC2(CC2)C(N)=N1
readout.type: concentration at 4 h
limit.operator: =
result.number: 81
